Measured values drawn from patent US20240067748A1 for this set.

Target: T1, monkey Trop2 protein (Sino Biological, #90893-C08H) (monkey, UniProt A0A2K5UE71 27-274)
T1 construct: bought protein; also called monkey Trop2 protein antigen (His tag)
T1 sequence: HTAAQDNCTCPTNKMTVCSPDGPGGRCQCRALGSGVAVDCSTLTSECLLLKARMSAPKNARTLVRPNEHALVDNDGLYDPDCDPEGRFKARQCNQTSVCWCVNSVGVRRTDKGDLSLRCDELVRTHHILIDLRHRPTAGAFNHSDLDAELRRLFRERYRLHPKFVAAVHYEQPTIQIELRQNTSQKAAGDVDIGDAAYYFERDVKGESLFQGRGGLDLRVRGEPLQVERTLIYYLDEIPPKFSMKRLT
Assay: BLI, Octet RED96, AHC sensor
QUANTITY: kon (M⁻¹ s⁻¹)
Quick note: give the figure in M⁻¹ s⁻¹, leave out the unit.

Sample answers from the record:
# BINDER, kon, M⁻¹ s⁻¹
measured = [
    ("PR001160 (antibody, human IgG1, kappa, V domains shown, fully human IgG1/kappa; also called antibody No. (22)) VH: QVQLVESGGGVVQPGRSLRLSCEASGFTFSHYGMHWVRQAPGKGLEWVAVIWYDGIMKNYIESVKGRFTISRDNSKNTLYLQMNRLRAEDTAVYYCARDGGFGELNYYGLDVWGQGTTVTVSS VL: DIQLTQSPSFLSASVGDRVTITCRASQGISSYLGWYQQKPGKAPKLLIYVASTLQSGVPSRFSGSGSGTEFTLTISSLQPEDFATYYCQQLNSYPYTFGQGTKLEIKR", 74300),
    ("PR001158 (antibody, human IgG1, kappa, V domains shown, fully human IgG1/kappa; also called antibody No. (20)) VH: QVQLVESGGGVVQPGRSLRLSCVASGFTFSHYGMHWVRQAPGKGLEWVAVIWYDGIKKYYVESVKGRFTISRDNSKNTLNLQMNRLRAEDTAVYYCARDGGFGESNYYGLDVWGQGTTVTVSS VL: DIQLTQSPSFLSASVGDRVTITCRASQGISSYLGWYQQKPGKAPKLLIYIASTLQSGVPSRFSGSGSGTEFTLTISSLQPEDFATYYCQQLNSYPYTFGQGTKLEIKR", 87900),
]

Request: Input PR001150 (antibody, human IgG1, kappa, V domains shown, fully human IgG1/kappa; also called antibody No. (13)) VH: QVQLVESGGGVVQPEKSLRLSCAASGFTFSHYGMHWVRQVPGKGLEWVAVIWYDGIKRYYVESVKGRFTISRDNSKNTLYLQMNRLRAEDTAVYYCARDGGFGESNYYGLDVWGQGTTVTVSS VL: DIQLTQSPSFLSASVGDRVTITCRASQGINSYLGWYQRKPGKAPKLLIYIASTLQSGVPSRFSGSGSGTEFTLTISSLQPEDFATYYCQQLNSYPYTFGQGTKLEIKR , output reported kon.
Response: 107000

Request: Tell me its kon given PR001142 (antibody, human IgG1, kappa, V domains shown, fully human IgG1/kappa; also called antibody No. (9)) VH: QVQLQESGPGLVKPSGTLSLTCAVSGDSISSNNWWSWVRQPPGKGLEWIGEIYPGGNPNYNPSLKSRVTISVDKSKNQFSLKLNSVTAADTAVYYCARGSGVISYFDYWGQGTLVTVSS VL: DIQMTQSPSTLSASVGDRVTITCRASQSIGHWLAWYQQKPGKAPKLLIYKASSLESGVPSRFRGSGSGTEFTLTISSLQPDDFATYYCQQYSSYSPITFGQGSRLEIKR as the entry.
Response: 165000
